# credit: patent US12692269B2

Parameter: TEAD1 TAZ HTRF combined: Max % Inhibition. Scope: all listed entries.
- assay target: TEAD1 TAZ (amino acids 13-57) (Homo sapiens)
- Sequence (P28347 167-426 limits assumed): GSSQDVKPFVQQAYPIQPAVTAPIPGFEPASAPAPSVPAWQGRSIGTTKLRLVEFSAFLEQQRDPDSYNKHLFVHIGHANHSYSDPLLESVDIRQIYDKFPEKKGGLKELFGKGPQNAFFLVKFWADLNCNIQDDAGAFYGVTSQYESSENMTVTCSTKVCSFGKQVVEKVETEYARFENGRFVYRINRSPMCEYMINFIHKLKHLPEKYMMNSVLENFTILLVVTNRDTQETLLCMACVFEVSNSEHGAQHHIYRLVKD
- assay summary: TEAD1-TAZ HTRF (TR-FRET) protein-protein interaction assay
- Format: binding
- condition details: TEAD1, TAZ peptide, HTRF
# value in %; strip the unit string

>  <molecule>
C[C@@H]1[C@H](CF)CN1C(=O)c1c(-c2ncccn2)nn2c(=O)cc(-c3ccc(C4CCCCC4)cc3)[nH]c12 (single isomer, unassigned) [Isomer A, Example 40]

>  <numeric result>
64.5

$$$$
>  <molecule>
COc1ccnc(-c2nn3c(=O)cc(-c4ccc(C5CCCCC5)cc4)[nH]c3c2C(=O)N2CC(CF)C2)n1 [Compound 14]

>  <numeric result>
74.0

$$$$

Recorded TEAD1 TAZ HTRF combined: Max % Inhibition for O=C(c1c(-c2cccnc2)nn2c(=O)cc(-c3ccc(C4CCCCC4)cc3)[nH]c12)N1CC(CF)C1 [Compound 37] with TEAD1 TAZ (amino acids 13-57) (Homo sapiens), please?
50.0

====

- assay target: TEAD3 TAZ (amino acids 13-57) (Homo sapiens, UniProt Q99594)
- assay summary: TEAD3-TAZ HTRF (TR-FRET) protein-protein interaction assay
- condition details: TEAD3-TAZ HTRF, TR-FRET 665 nm/615 nm; read-out: TEAD3 TAZ HTRF combined: EC50
attribute measured: EC50 (nM)
// note: answer is a bare numeric in nM

Which measured EC50 value corresponds to C[C@H](CO)c1nn2c(=O)cc(-c3ccc(C4CCCCC4)cc3)[nH]c2c1C(=O)N1CC(CF)C1 (single isomer, unassigned) [Enantiomer A, Example 55] ?
110

====

- assay target: TEAD3 YAP50-100 (Homo sapiens)
- Sequence (Q99594 173-435 limits assumed): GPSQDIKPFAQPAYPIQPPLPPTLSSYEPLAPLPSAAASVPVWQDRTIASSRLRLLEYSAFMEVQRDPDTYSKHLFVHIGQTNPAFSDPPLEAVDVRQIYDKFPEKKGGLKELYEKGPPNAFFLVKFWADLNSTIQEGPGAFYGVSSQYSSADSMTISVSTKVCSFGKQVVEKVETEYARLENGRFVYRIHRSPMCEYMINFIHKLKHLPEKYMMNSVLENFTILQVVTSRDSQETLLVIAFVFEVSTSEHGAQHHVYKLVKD
- assay summary: TEAD3-YAP HTRF (TR-FRET) protein-protein interaction assay
- condition details: TEAD3, YAP peptide 50-100, HTRF; read-out: TEAD3 YAP50-100 HTRF combined: EC50
Known EC50 of a selection of compounds
All answers are understood in nM, so give the number only.

Given the entry Cc1nccnc1-c1nn2c(=O)cc(-c3ccc(OC(c4ccccc4)C(F)(F)F)cc3)[nH]c2c1C(=O)N1C[C@H](CF)[C@@H]1C (single isomer, unassigned) [Final product obtained using Enantiomer B from Step 1, Example 56] , report its measured EC50.
830

What measured EC50 goes with `O=C(c1nn2c(=O)cc(-c3ccc(C4CCCCC4)cc3)[nH]c2c1C(=O)N1CC(CF)C1)N1CCCC1` ?
180

Please look up its EC50: `O=C(c1c(-c2cnccn2)nn2c(=O)cc(-c3ccc(C4CCCCC4)c(F)c3)[nH]c12)N1CC(CF)C1`
110

Given the compound C[C@@H]1[C@H](CF)CN1C(=O)c1c(-c2cnccn2)nn2c(=O)cc(-c3ccc(C4CCCCC4)cc3)[nH]c12 (single isomer, unassigned) [Isomer B, Example 39] , what is its reported EC50?
2450

Need EC50 of `Cc1nccnc1-c1nn2c(=O)cc(-c3ccc(C4CCCCC4)cc3)[nH]c2c1C(=O)N1CC(CF)C1` , thanks.
100

# query: EC50 of entry `Cc1cncc(-c2nn3c(=O)cc(-c4ccc(C5CCCCC5)cc4)[nH]c3c2C(=O)N2CC(CF)C2)n1`
100

Find the recorded EC50 belonging to C[C@H]1[C@@H](CF)CN1C(=O)c1c(-c2cnccn2)nn2c(=O)cc(-c3ccc(C4CCCCC4)cc3)[nH]c12 (single isomer, unassigned) [Isomer A, Example 39] and report it.
120
